Source: patent US20250171542A1

Reported pEC50 values for the following binders.
# test target: T1, cynomolgus PD-L1-His (Sino Biological, Cat. 90251-C08H) (cynomolgus, UniProt Q9NZQ7 19-238 (human entry))
# T1 construct: Bought protein; also called Cyno PD-L1; Cynomolgus PD-L1 ECD-His; not shown: His tag
# T1 sequence (Q9NZQ7 other isoform, or with tags, fused parts or gaps C08H C08H limits assumed): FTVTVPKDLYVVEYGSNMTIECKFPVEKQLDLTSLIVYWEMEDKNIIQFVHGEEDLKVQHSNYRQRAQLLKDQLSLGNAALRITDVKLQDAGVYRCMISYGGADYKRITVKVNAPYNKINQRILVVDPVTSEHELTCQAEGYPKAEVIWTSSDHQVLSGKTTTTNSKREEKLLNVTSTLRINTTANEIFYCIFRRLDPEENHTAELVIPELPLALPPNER
# assay protocol: ELISA, coated cyno PD-L1-His
When answering, recall that pEC50 equals minus log10 of the concentration in mol/L, and write that number alone.

Examples from the recorded data:
>>> reported_measurement("73C8 (antibody, human IgG1, V domains shown) VH: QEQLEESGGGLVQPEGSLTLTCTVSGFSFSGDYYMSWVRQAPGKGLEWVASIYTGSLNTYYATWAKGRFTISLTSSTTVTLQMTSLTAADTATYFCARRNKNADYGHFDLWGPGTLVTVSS VL: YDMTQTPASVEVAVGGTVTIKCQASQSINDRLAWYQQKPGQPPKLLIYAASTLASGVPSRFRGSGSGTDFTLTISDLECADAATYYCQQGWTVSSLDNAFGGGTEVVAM")
10.92
>>> reported_measurement("62E6 (antibody, human IgG1, V domains shown) VH: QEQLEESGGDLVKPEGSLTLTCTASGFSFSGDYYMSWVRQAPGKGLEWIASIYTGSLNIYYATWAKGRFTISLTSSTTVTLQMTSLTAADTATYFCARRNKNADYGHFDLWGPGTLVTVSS VL: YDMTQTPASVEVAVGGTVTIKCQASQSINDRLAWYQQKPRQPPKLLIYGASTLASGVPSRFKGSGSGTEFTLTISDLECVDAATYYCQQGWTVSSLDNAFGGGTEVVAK")
10.73

Now take the following binder into account.
q: pEC50 for 33E8 (antibody, human IgG1, V domains shown) VH: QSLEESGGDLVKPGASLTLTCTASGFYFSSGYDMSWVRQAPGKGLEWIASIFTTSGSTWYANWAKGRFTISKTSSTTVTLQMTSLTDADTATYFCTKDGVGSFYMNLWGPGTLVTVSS VL: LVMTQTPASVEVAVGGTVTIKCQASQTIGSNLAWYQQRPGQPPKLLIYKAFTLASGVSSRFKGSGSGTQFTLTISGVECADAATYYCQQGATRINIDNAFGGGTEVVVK ?
a: 10.38
